- TARGET_DESC: T1, cynomolgus monkey IL-33 expressed with a C-terminal hexahistidine tag (cynomolgus monkey)
- T1 construct: also called MfIL-33-6His; Mf-IL-33-6His
- T1 chain: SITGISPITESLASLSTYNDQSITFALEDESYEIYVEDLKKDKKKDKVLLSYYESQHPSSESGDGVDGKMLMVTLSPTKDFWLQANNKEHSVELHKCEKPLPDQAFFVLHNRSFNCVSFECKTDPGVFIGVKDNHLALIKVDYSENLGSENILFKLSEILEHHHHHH
- MEASUREMENT_NOTES: SPR 37C, pH6.0 chase, mAb captured
MEASURED_QUANTITY: t½ Ratio (pH 7.4/pH 6.0)

{"columns": ["BINDER", "MEASURED_QUANTITY", "RECORDED_NUMBER"],
 "data": [
  ["H4H9660P (antibody, human IgG4, V domains shown, Human IgG4 Fc (H4H)) VH: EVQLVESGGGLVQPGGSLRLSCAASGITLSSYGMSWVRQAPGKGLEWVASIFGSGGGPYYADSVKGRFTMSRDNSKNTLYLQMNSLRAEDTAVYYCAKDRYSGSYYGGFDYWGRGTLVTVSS VL: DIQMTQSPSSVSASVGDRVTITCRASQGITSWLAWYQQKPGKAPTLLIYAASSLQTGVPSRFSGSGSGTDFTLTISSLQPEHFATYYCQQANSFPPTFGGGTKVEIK", "t½ Ratio (pH 7.4/pH 6.0)", 1],
  ["H4H9664P (antibody, human IgG4, V domains shown, Human IgG4 Fc (H4H)) VH: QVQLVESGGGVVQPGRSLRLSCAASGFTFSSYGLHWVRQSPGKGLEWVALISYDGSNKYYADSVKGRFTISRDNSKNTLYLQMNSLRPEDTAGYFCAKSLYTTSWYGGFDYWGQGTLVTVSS VL: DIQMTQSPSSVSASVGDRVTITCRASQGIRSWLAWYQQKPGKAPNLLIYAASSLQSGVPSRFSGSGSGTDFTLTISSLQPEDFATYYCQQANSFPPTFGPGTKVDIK", "t½ Ratio (pH 7.4/pH 6.0)", 0.3]
]}
